Data provenance: a melting point compilation (Tetko et al.; mined from patent text by program, amines drawn as free bases though some values may be those of a salt)

Measured melting point, listed per entry.

Illustrative cases are given below, each with its answer.
INSERT INTO measurements (compound, measured_parameter, value_measured) VALUES
  ('Clc1[nH]c2ccccc2c1Sc1ccccc1', 'melting point', '98 to 99 °C'),
  ('CC(C)(C)OC(=O)CN(C(=O)CNC(=O)c1ccc2ccccc2n1)c1ccccc1', 'melting point', '114 °C'),
  ('CN1C(=O)CC2(CNC(=O)C2)C1=O (stereo unspecified)', 'melting point', '201 to 204 °C');

Note down melting point recorded for "Cn1cc(-c2cc3cccnc3[nH]2)c2cc(OCCO)ccc21" 209 to 210 °C

Give the value of melting point reported for the following: "CCSc1nc(=O)n(C(=O)NC)s1" 131 °C

Report melting point, nothing else, for this compound: "CS(=O)(=O)c1ccc(-c2c(Cl)c3cccccc-3c2-c2ccccc2)cc1" 140 to 142 °C

Give the reported melting point for this compound. "CSC1=NC2=NC3=C(CNCC3=O)CN2N1" 266 to 269 °C

Provide measured melting point value, entry: "CCOC(=O)c1cc(=O)c2c(ccc3nc(C(=O)OC)cc(Cl)c32)o1" 193 °C

Identify the reported melting point for the following entry. "CN1CCN(c2ncnc3oc(-c4ccc(N)nc4)c(-c4ccccc4)c23)CC1" 229 to 231 °C

Entry "Cc1nc[nH]c1CSCCNC1=NCCS(=O)(=O)N1" needs its melting point filled in; supply it. 146 to 147 °C

Please supply the value of reported melting point for the item "CC(C)N1Cc2cc(N)ccc2N(CCCl)S1(=O)=O" 154 to 156 °C

Tell me melting point reported for "CCOC(=O)c1cnc(-c2ccccc2[N+](=O)[O-])[nH]c1=O" 171 to 175 °C

###

melting point listing for selected compounds.

The examples below pair each entry with its known result.
INSERT INTO measurements (compound, measured_parameter, value_measured) VALUES
  ('Cc1c(Br)cc(-c2ccc(=O)[nH]n2)c(O)c1Br', 'melting point', '> 280 °C'),
  ('CCc1nn(CCNC(=O)c2ccccc2)c(CC)c1Cc1cc(Cl)cc(Cl)c1', 'melting point', '115 to 117 °C'),
  ('Cn1cc(C2=C(c3c4n(c5ccccc35)CCC(CO)CC4)C(=O)NC2=O)c2ccccc21 (stereo not given)', 'melting point', '109 to 111 °C');

In one line, give reported melting point of the entry "N#Cc1cccc(NC(=O)C(=O)N2CCC(Cc3ccc(F)cc3)CC2)c1" . 135 to 138 °C

Look up and report measured melting point for this entry: CC(=O)N1N=C(c2ccncc2)OC1(C)c1ccccc1 (stereo not given) 79 to 81 °C

###

Measured parameter: melting point (°C)
Expressed in °C, but write only the number.

INSERT INTO results (compound, value_measured) VALUES
  ('Cc1nc(Cl)c2c(c1O)COC2(C)C', 251);

Identify melting point associated with the compound "Cc1ccc(-c2occc2C(=O)O)cc1" 166

# return recorded melting point for entry O=C(CCCCCC(c1cc(F)ccc1F)S(=O)(=O)c1ccc(Cl)cc1)N1CCCC1 (stereo not given) 106

In one line, give reported melting point of the entry "CCCNC(=O)C1(CC=Cc2ccccc2)c2ccccc2CCc2ccccc21" . 159

###

Measured parameter: melting point

INSERT INTO measurements (compound, value_measured) VALUES
  ('O=C1Nc2ccccc2C(c2ccc(Cl)cc2)CC1Br (stereo not given)', '194 to 198 °C'),
  ('O=C(O)COc1ccc([N+](=O)[O-])c(C(F)(F)F)c1', '92 to 95 °C'),
  ('Cn1c(C(N)=O)c(-c2ccc(N)cc2)c2ccccc21', '96 to 98 °C'),
  ('CCCCCCCCCCCCCCCCCCOc1cc(NC(=O)OCc2ccccc2)cc(OC(C)=O)c1', '57 to 59 °C');

Continue with the compound presented below.
Annotate the compound "C=Cc1cnc2c(NC(=O)c3c(Cl)cccc3Cl)cccc2c1CO" with its measured melting point. 243 to 244 °C
